So I've got a bunch of compounds here, and I need their inhibition at 0.1 µM values.
# MEASURED_ON: AR protein (Homo sapiens, UniProt P10275, T878A)
# Construct: degradation activity of the compounds disclosed in the present disclosure on AR protein in LNCaP cells; host or cells: LNCaP FGC
# Sequence (P10275 1-920 T878A): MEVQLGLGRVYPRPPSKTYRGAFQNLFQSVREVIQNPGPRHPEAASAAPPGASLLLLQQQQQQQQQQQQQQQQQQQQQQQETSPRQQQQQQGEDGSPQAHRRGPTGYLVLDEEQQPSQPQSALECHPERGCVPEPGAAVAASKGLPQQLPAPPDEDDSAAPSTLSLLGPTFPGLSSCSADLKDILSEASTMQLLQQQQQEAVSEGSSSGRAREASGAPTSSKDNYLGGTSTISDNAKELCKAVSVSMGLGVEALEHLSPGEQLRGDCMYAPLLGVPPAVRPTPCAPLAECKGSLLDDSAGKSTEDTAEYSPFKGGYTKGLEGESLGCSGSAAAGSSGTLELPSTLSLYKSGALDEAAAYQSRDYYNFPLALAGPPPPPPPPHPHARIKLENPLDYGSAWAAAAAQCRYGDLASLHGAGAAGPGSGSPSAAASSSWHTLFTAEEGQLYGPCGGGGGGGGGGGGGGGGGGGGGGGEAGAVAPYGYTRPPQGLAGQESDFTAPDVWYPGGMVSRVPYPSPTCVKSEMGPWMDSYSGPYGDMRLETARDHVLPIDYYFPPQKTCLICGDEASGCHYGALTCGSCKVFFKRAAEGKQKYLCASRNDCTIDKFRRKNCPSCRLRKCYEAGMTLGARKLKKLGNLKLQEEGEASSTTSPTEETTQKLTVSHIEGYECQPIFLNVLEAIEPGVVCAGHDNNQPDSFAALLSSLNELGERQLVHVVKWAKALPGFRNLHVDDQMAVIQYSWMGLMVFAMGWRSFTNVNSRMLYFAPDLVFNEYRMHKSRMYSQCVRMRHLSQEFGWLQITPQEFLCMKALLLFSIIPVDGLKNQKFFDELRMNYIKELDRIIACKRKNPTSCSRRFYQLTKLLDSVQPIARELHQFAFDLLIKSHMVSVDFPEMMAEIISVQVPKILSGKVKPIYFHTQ
# ASSAY_EXPLANATION: Degradation of AR protein in LNCaP cells (Western blot)
# Type: cell-based
# CONDITION_PARAMETERS: LNCaP cells, compound 100 nM, 8 hours, Western blot grayscale, GAPDH internal reference; read-out: Degradation rates of the AR protein in LNCaP cells, 100 nM (%)
I'd appreciate it if you included the unit after the number.

Example compounds with recorded inhibition at 0.1 µM:
{"COMPOUND": "COc1cc(OC2C(C)(C)C(NC(=O)c3ccc(N4CCC(CN5CCC6(CC5)COc5cc7c(cc56)C(=O)N(C5CCC(=O)NC5=O)C7=O)CC4)cc3)C2(C)C)ccc1C#N (centres unmarked) [Compound 280]", "MEASURED_ON": "AR protein (Homo sapiens, UniProt P10275, T878A)", "inhibition at 0.1 µM": "52%"}
{"COMPOUND": "N#Cc1ccc(O[C@H]2CC[C@H](NC(=O)c3ccc(N4CCC5(CC4)CC(N4CCC6(CCc7cc8c(cc7O6)C(=O)N(C6CCC(=O)NC6=O)C8=O)CC4)C5)nn3)CC2)cc1Cl (some centres unmarked) [Compound 31]", "MEASURED_ON": "AR protein (Homo sapiens, UniProt P10275, T878A)", "inhibition at 0.1 µM": "69%"}
{"COMPOUND": "CC1(CN2CCC3(CC2)COc2c3ccc3c2C(=O)N(C2CCC(=O)NC2=O)C3=O)CCN(c2ncc(C(=O)NC3CCC(Oc4ccc(C#N)c(Cl)c4)CC3)cn2)CC1 (centres unmarked) [Compound 245]", "MEASURED_ON": "AR protein (Homo sapiens, UniProt P10275, T878A)", "inhibition at 0.1 µM": "45%"}

For each entry beneath this line, provide reported inhibition at 0.1 µM.
1. N#Cc1ccc(O[C@H]2CC[C@H](NC(=O)c3ccc(N4CC5(CC(N6CCC7(CC6)COc6cc8c(cc67)C(=O)N(C6CCC(=O)NC6=O)C8=O)C5)C4)nn3)CC2)cc1Cl (some centres unmarked) [Compound 50]
2. COc1cc(O[C@H]2C(C)(C)[C@H](NC(=O)c3ccc(N4CCC(CN5CCC6(CC5)COc5c6ccc6c5CN(C5CCC(=O)NC5=O)C6=O)(OC)CC4)cc3)C2(C)C)ccc1C#N (some centres unmarked) [Compound 217]

Ans:
["86%", "48%"]
